Data provenance is BindingDB's records for doi:10.1016/j.ejmech.2013.04.003.

# target: Transient receptor potential cation channel subfamily V member 1 (Homo sapiens, UniProt Q8NER1)
# Sequence (Q8NER1 whole entry): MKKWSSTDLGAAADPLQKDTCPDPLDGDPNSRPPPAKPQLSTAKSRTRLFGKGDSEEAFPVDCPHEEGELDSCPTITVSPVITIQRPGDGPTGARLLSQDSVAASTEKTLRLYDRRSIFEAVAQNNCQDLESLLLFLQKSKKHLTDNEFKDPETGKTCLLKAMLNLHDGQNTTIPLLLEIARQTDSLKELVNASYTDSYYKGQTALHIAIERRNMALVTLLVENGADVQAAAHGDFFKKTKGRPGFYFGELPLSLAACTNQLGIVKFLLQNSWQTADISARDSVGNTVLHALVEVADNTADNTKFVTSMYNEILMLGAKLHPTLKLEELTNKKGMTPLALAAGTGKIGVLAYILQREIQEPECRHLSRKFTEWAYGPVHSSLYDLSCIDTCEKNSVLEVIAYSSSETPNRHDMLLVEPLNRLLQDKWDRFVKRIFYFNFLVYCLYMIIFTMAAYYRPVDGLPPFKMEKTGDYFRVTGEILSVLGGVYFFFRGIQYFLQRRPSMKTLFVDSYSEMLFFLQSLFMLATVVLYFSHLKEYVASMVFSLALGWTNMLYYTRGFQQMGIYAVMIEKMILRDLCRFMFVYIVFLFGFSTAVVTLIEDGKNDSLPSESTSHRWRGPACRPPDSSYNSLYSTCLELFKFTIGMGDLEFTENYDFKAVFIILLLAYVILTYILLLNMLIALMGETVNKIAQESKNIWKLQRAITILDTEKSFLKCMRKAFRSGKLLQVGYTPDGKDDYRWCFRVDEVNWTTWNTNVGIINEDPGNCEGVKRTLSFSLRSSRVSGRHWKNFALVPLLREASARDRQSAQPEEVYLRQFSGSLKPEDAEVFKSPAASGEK
# test-details: Antagonist activity at human TRPV1 expressed in CHOK1 cells assessed as inhibition of capsaicin-induced activity by FLIPR assay
attribute-measured: pKi
pKi is defined as minus the log10 of a concentration measured in mol/L.

Input line: What pKi value was documented for this molecule, CC(C(=O)NCc1ccc(C(F)(F)F)nc1OCCCOc1ccccc1)c1ccc(NS(C)(=O)=O)c(F)c1 (stereo unspecified) ?
Output line: 8.82
